Below, each entry is listed alongside its reported pEC50.
# Tested On: GPR40 (Homo sapiens)
# Construct: host or cells: HEK293 (ChemiBrite cell line)
# Experiment Summary: Promoter-luciferase assay to measure GPR40 activation (HEK293 cells stably transfected with GPR40 cDNA)
# Assay type: cell-based
# Condition Notes: HEK293 cells stably transfected with GPR40, 5xSRE-luciferase; read-out: EC50 in Luciferase assay
pEC50: −log10 of the molar value.
Measured Endpoint: pEC50

Molecule	Tested On	Recorded Measurement
CC#C[C@@H](CC(=O)O)c1ccc(OCc2cccc(CN3CCc4sc(C(F)F)cc4C3)c2)cc1 [Compound 18]	GPR40 (Homo sapiens)	8.06
CC#C[C@@H](CC(=O)O)c1ccc(OCc2cccc(CN3Cc4ccccc4C3)c2)cc1 [Compound 12, trifluoroacetic acid]	GPR40 (Homo sapiens)	8.25
CC#C[C@@H](CC(=O)O)c1ccc(OCc2cccc(CN3CCc4sccc4C3)c2)cc1 [Compound 1]	GPR40 (Homo sapiens)	8.12
CC#C[C@@H](CC(=O)O)c1ccc(OCc2cccc(CN3CCc4sc(C(=O)N5CCCC5)cc4C3)c2)cc1 [Compound 62]	GPR40 (Homo sapiens)	8.52

* * *

# Experiment Summary: Pharmacokinetics in rats
# Condition Notes: rat, in vivo, po 3 mg/Kg
Below, each entry is listed alongside its reported Cmax.
Measured Endpoint: Cmax

Compound	Measured Endpoint	Recorded Measurement
CC#C[C@@H](CC(=O)[O][Ca][O]C(=O)C[C@H](C#CC)c1ccc(OCc2cccc(CN3CCc4sc(C)cc4C3)c2)cc1)c1ccc(OCc2cccc(CN3CCc4sc(C)cc4C3)c2)cc1 [Compound 16]	Cmax	5920 ng/mL
CC#C[C@@H](CC(=O)[O][Ca][O]C(=O)C[C@H](C#CC)c1ccc(OCc2cccc(CN3CCc4oc(C5CC5)nc4C3)c2)cc1)c1ccc(OCc2cccc(CN3CCc4oc(C5CC5)nc4C3)c2)cc1 [Compound 64]	Cmax	8060 ng/mL
CC#C[C@@H](CC(=O)[O][Ca][O]C(=O)C[C@H](C#CC)c1ccc(OCc2cccc(CN3CCc4nc(Cl)sc4C3)c2)cc1)c1ccc(OCc2cccc(CN3CCc4nc(Cl)sc4C3)c2)cc1 [Compound 60]	Cmax	7770 ng/mL

* * *

# Experiment Summary: Pharmacokinetics in rats
# Condition Notes: rat, in vivo, iv 1 mg/Kg
# Lookup of reported clearance keyed by entry

Compound	clearance, mL/min/kg
CC#C[C@@H](CC(=O)[O][Ca][O]C(=O)C[C@H](C#CC)c1ccc(OCc2cccc(CN3CCc4oc(C5CC5)nc4C3)c2)cc1)c1ccc(OCc2cccc(CN3CCc4oc(C5CC5)nc4C3)c2)cc1 [Compound 64]	0.27
CC#C[C@@H](CC(=O)[O][Ca][O]C(=O)C[C@H](C#CC)c1ccc(OCc2cccc(CN3CCc4nc(Cl)sc4C3)c2)cc1)c1ccc(OCc2cccc(CN3CCc4nc(Cl)sc4C3)c2)cc1 [Compound 60]	0.89
CC#C[C@@H](CC(=O)[O][Ca][O]C(=O)C[C@H](C#CC)c1ccc(OCc2cccc(CN3CCc4sc(C)cc4C3)c2)cc1)c1ccc(OCc2cccc(CN3CCc4sc(C)cc4C3)c2)cc1 [Compound 16]	5.26

* * *

# Experiment Summary: Pharmacokinetics in rats
# Condition Notes: rat, in vivo, iv 1 mg/Kg, read-out: T1/2, iv (converted)
Listed here: items and their measured half-life.
Measured Endpoint: half-life (h)

Compound	Uom	Recorded Measurement
CC#C[C@@H](CC(=O)[O][Ca][O]C(=O)C[C@H](C#CC)c1ccc(OCc2cccc(CN3CCc4nc(Cl)sc4C3)c2)cc1)c1ccc(OCc2cccc(CN3CCc4nc(Cl)sc4C3)c2)cc1 [Compound 60]	h	5.57
CC#C[C@@H](CC(=O)[O][Ca][O]C(=O)C[C@H](C#CC)c1ccc(OCc2cccc(CN3CCc4oc(C5CC5)nc4C3)c2)cc1)c1ccc(OCc2cccc(CN3CCc4oc(C5CC5)nc4C3)c2)cc1 [Compound 64]	h	7.77
CC#C[C@@H](CC(=O)[O][Ca][O]C(=O)C[C@H](C#CC)c1ccc(OCc2cccc(CN3CCc4sc(C)cc4C3)c2)cc1)c1ccc(OCc2cccc(CN3CCc4sc(C)cc4C3)c2)cc1 [Compound 16]	h	1.45

* * *

# Tested On: GPR40 (Homo sapiens, UniProt O14842)
# Construct: host or cells: HEK293 (ChemiBrite cell line)
# Sequence (O14842 whole entry, species assumed): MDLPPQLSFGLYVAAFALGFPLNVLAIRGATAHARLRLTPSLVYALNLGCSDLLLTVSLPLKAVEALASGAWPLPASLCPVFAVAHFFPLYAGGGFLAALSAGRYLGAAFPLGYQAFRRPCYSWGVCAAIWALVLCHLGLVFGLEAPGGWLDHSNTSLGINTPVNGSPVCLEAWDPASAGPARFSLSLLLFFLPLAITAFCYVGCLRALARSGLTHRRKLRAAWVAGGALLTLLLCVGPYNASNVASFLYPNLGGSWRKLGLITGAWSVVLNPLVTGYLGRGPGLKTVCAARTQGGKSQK
# Experiment Summary: Intracellular Ca2+ flux fluorescent assay (FLIPR)
# Assay type: cell-based
# Condition Notes: GPR40 expressing stable cells, intracellular Ca2+ flux; read-out: EC50 in FLIPR assay
Entries and their EC50
Measured Endpoint: EC50 (nM)

1. CC#C[C@@H](CC(=O)O)c1ccc(OCc2cccc(CN3Cc4cnn(C)c4C3)c2)cc1 36.3
2. CC#C[C@@H](CC(=O)O)c1ccc(OCc2cccc(CN3CCc4sc(Br)cc4C3)c2)cc1 2.32
3. CC#C[C@@H](CC(=O)O)c1ccc(OCc2cccc(CN3CCc4sccc4C3)c2)cc1 117
4. CC#C[C@@H](CC(=O)O)c1ccc(OCc2cccc(CN3CCc4sc(C)cc4C3)c2)cc1 1.8

* * *

# Tested On: GPR40 (Homo sapiens, UniProt O14842)
# Construct: host or cells: HEK293 (ChemiBrite cell line)
# Experiment Summary: Promoter-luciferase assay to measure GPR40 activation (HEK293 cells stably transfected with GPR40 cDNA)
# Assay type: cell-based
# Condition Notes: HEK293 cells stably transfected with GPR40, 5xSRE-luciferase; read-out: EC50 in Luciferase assay
pEC50: −log10 of the molar value. Where a name gives a salt, the structure may show the parent alone.

Molecule	pEC50
CC#C[C@@H](CC(=O)O)c1ccc(OCc2cccc(CN3CCCc4ccc(OC)cc43)c2)cc1 [Compound 30, formate]	8.35
CC#CC(CC(=O)O)c1ccc(OCc2cccc(CN3CCc4sc(C)cc4C3)c2)cc1 (stereo not drawn) [Compound 58]	8.43
CC#C[C@@H](CC(=O)O)c1ccc(OCc2cccc(CN3CCc4nc(C)sc4C3)c2)cc1 [Compound 10]	7.77
CC#C[C@@H](CC(=O)O)c1ccc(OCc2cccc(CN3CCc4nc(N)sc4C3)c2)cc1 [Compound 38]	7.75
CC#C[C@@H](CC(=O)O)c1ccc(OCc2cccc(CN3CCc4ccccc4C3)c2)cc1 [Compound 15]	8.34
CC#C[C@@H](CC(=O)O)c1ccc(OCc2cccc(CN3CCc4sc(C(=O)O)cc4C3)c2)cc1 [Compound 35]	6.69
CC#C[C@@H](CC(=O)O)c1ccc(OCc2cccc(CN3CCc4sc(C(N)=O)cc4C3)c2)cc1 [Compound 40]	8.10
CC#C[C@@H](CC(=O)O)c1ccc(OCc2cccc(CN3Cc4cnn(C)c4C3)c2)cc1 [Compound 22]	7.50
CC#C[C@@H](CC(=O)O)c1ccc(OCc2cccc(CN3CCc4ncncc4C3)c2)cc1 [Compound 21]	8.55
CC#C[C@@H](CC(=O)O)c1ccc(OCc2cccc(CN3CCc4sc(C)cc4C3)c2)cc1 [Compound 7]	8.83
CC#C[C@@H](CC(=O)O)c1ccc(OCc2cccc(CN3CCc4sc(C(=O)NC5CC5)cc4C3)c2)cc1 [Compound 61]	7.90
CC#C[C@@H](CC(=O)O)c1ccc(OCc2cccc(CN3CCc4c(ccn4C(=O)OC(C)(C)C)C3)c2)cc1 [Compound 8]	7.93
CC#C[C@@H](CC(=O)O)c1ccc(OCc2cccc(CN3CCc4sc(NC(C)=O)cc4C3)c2)cc1 [Compound 63]	8.36
CC#C[C@@H](CC(=O)O)c1ccc(OCc2cccc(CN3CCc4nc(OC)ncc4C3)c2)cc1 [Compound 50]	7.68
CC#C[C@@H](CC(=O)O)c1ccc(OCc2cccc(CN3CCc4sc([N+](=O)[O-])cc4C3)c2)cc1 [Compound 65]	8.80

* * *

# Experiment Summary: Pharmacokinetics in rats
# Condition Notes: rat, in vivo, iv 1 mg/Kg, read-out: Vss
# maps each entry to its Vd

Molecule	Vd
CC#C[C@@H](CC(=O)[O][Ca][O]C(=O)C[C@H](C#CC)c1ccc(OCc2cccc(CN3CCc4oc(C5CC5)nc4C3)c2)cc1)c1ccc(OCc2cccc(CN3CCc4oc(C5CC5)nc4C3)c2)cc1 [Compound 64]	0.16 L/kg
CC#C[C@@H](CC(=O)[O][Ca][O]C(=O)C[C@H](C#CC)c1ccc(OCc2cccc(CN3CCc4nc(Cl)sc4C3)c2)cc1)c1ccc(OCc2cccc(CN3CCc4nc(Cl)sc4C3)c2)cc1 [Compound 60]	0.33 L/kg
CC#C[C@@H](CC(=O)[O][Ca][O]C(=O)C[C@H](C#CC)c1ccc(OCc2cccc(CN3CCc4sc(C)cc4C3)c2)cc1)c1ccc(OCc2cccc(CN3CCc4sc(C)cc4C3)c2)cc1 [Compound 16]	0.34 L/kg

* * *

# AUC(0-t) per entry
# Experiment Summary: Pharmacokinetics in rats
# Condition Notes: rat, in vivo, iv 1 mg/Kg
Measured Endpoint: AUC(0-t) (ng·h/mL)

1. CC#C[C@@H](CC(=O)[O][Ca][O]C(=O)C[C@H](C#CC)c1ccc(OCc2cccc(CN3CCc4sc(C)cc4C3)c2)cc1)c1ccc(OCc2cccc(CN3CCc4sc(C)cc4C3)c2)cc1 3180
2. CC#C[C@@H](CC(=O)[O][Ca][O]C(=O)C[C@H](C#CC)c1ccc(OCc2cccc(CN3CCc4nc(Cl)sc4C3)c2)cc1)c1ccc(OCc2cccc(CN3CCc4nc(Cl)sc4C3)c2)cc1 18600
3. CC#C[C@@H](CC(=O)[O][Ca][O]C(=O)C[C@H](C#CC)c1ccc(OCc2cccc(CN3CCc4oc(C5CC5)nc4C3)c2)cc1)c1ccc(OCc2cccc(CN3CCc4oc(C5CC5)nc4C3)c2)cc1 56100

Cited source for all entries: patent US10011609B2
